- Test system: CD2F1 mice, L1210 leukemia ip, survival T/C
- test-protocol: NCI In Vivo Anticancer Drug Screen. Data for tumor model L1210 Leukemia (intraperitoneal) in CD2F1 (CDF1) mice
- conditions: endpoint: mean survival time; dose: 300.0 mg/kg/injection; schedule: Q01DX001 (ip); vehicle: saline; higher = longer survival
Inconclusive results and toxic doses are left out.
measured-property: T/C

[ask] For CNc1ncnc2[nH]cc([N+](=O)[O-])c12 , what is its reported T/C?
[reply] 106 % of control

[ask] Endpoint output: T/C of [N-]=[N+]=NCCCCCCCCCCN=[N+]=[N-] . Value?
[reply] 98 % of control

[ask] Reported T/C for CCC(COC(=O)c1ccc([N+](=O)[O-])cc1)NC1CCCCC1 (stereo not drawn) : what is it?
[reply] 101 % of control

[ask] What does the record list as T/C for CCC1COCC1Cc1cncn1C (stereo not drawn) ?
[reply] 100 % of control

[ask] # get_value(readout='T/C', item= CCC1(C)CC(=O)NC1=O (stereo not drawn) )
[reply] 96 % of control

[ask] May I ask what T/C has been recorded for CCSc1n[nH]c(=O)nc1SC ?
[reply] 97 % of control

[ask] Consider the compound shown here: NNc1nc(=O)[nH]nc1Sc1ccccc1 What is its recorded T/C?
[reply] 97 % of control

[ask] // returns reported T/C for input Nc1nc(=S)c2ncn(C3OC(CO)C4OC43)c2[nH]1 (stereo not drawn)
[reply] 97 % of control
